# Assay System: Bleg1_2478 (Shouchella lehensis (Bacillus lehensis))
# Sequence (A0A060M4R1 entry or part of it): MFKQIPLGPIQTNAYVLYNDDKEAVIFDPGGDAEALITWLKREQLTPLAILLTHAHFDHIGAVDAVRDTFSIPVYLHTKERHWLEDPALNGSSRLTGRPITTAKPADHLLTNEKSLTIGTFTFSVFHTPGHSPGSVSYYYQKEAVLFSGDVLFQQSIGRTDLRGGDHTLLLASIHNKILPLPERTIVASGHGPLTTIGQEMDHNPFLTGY
# Measurement Description: Isothermal titration calorimetry (ITC) with Bleg1_2478
# Assay type: binding, Bacillus lehensis G1
Measured Attribute: Kd
Report the figure along with its unit, number first.

Please fill in: Kd reported for CC1(C)S[C@@H]2[C@H](NC(=O)[C@H](N)c3ccccc3)C(=O)N2[C@H]1C(=O)O [Ampicillin, ampicillin, reference compound] = 1.47 µM

---

Below: a set of entries, each annotated with reported pKd.
# Assay System: Bleg1_2478 (Shouchella lehensis (Bacillus lehensis))
# Measurement Description: Isothermal titration calorimetry (ITC) with Bleg1_2478
# Format: binding, Bacillus lehensis G1
# Experimental Setup: ITC, 30 °C, 20 mM sodium phosphate pH 7.0, 300 rpm; read-out: Dissociation constant, Kd
No end group written: not given here.
Keep in mind that pKd stands for -log10 of concentration in molar terms.

SSWWDR [SSWWDR]	6.00

Form: substance = RSWPWH [RSWPWH] ; pKd = 6.30
